Test system: J2 IgG LC Y38F
PROTOCOL TEXT: BLI
APPLIED CONDITIONS: 25 mM Tris-HCl pH 7.5, 2 mM MgCl2, 100 mM KCl (FP, 21 C) or 100-400 mM KCl (BLI, IgG on Protein A, 25 C)
ASSAY METRIC: Kd (nM)
One number for each entry, in nM.

Query :: // lookup Kd for GUUGUAAAGAAGGUCAAUAU / AUAUUGACCUUCUUUACAAC [20-bp dsRNA]
Result :: 150

====

System: J2 IgG HC A30P
PROTOCOL TEXT: BLI
APPLIED CONDITIONS: 25 mM Tris-HCl pH 7.5, 2 mM MgCl2, 100 mM KCl (FP, 21 C) or 100-400 mM KCl (BLI, IgG on Protein A, 25 C)
ASSAY METRIC: pKd
Answers are plain numbers, as −log10 of the molar value.

Query :: // lookup pKd for GUUGUAAAGAAGGUCAAUAU / AUAUUGACCUUCUUUACAAC [20-bp dsRNA]
Result :: 6.92

====

System: J2 IgG HC Y50F
PROTOCOL TEXT: BLI
APPLIED CONDITIONS: 25 mM Tris-HCl pH 7.5, 2 mM MgCl2, 100 mM KCl (FP, 21 C) or 100-400 mM KCl (BLI, IgG on Protein A, 25 C)
ASSAY METRIC: pKd
Give bare numbers, as −log10 of the molar value.

Query :: // lookup pKd for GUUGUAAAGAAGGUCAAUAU / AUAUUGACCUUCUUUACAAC [20-bp dsRNA]
Result :: 6.37

====

Tested on: J2 IgG HC Y52F
PROTOCOL TEXT: BLI
APPLIED CONDITIONS: 25 mM Tris-HCl pH 7.5, 2 mM MgCl2, 100 mM KCl (FP, 21 C) or 100-400 mM KCl (BLI, IgG on Protein A, 25 C)
ASSAY METRIC: pKd
Give bare numbers, as −log10 of the molar value.

Query :: // lookup pKd for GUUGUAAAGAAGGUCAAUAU / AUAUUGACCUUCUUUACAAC [20-bp dsRNA]
Result :: 6.66

====

Tested on: J2 IgG
PROTOCOL TEXT: fluorescence polarization
APPLIED CONDITIONS: 25 mM Tris-HCl pH 7.5, 2 mM MgCl2, 100 mM KCl (FP, 21 C) or 100-400 mM KCl (BLI, IgG on Protein A, 25 C)
ASSAY METRIC: Kd (nM)
One number for each entry, in nM.

Query :: // lookup Kd for GGCAAGGGUAUCAUGGCGGACGACCGGGGUUCGAACCCCGGAUCCGGCCGUCCGCCGUGAUCCAUGCGGUUACCGCCCGCGUGUCGAACCCAGGUGUGCC [VA-I RNA]
Result :: 32

====

Test system: J2 IgG
PROTOCOL TEXT: BLI
APPLIED CONDITIONS: 25 mM Tris-HCl pH 7.5, 2 mM MgCl2, 100 mM KCl (FP, 21 C) or 100-400 mM KCl (BLI, IgG on Protein A, 25 C)
Hi there, I'd appreciate the recorded pKd for every entry that follows.
Numbers only, as −log10 of the molar value.

{"columns": ["BIOSEQUENCE", "pKd"],
 "data": [
  ["GUUGUAAAGAAGGUCAAUAUUGUACCAAACUUGAUGGAAAAGAACAACGU / ACGUUGUUCUUUUCCAUCAAGUUUGGUACAAUAUUGACCUUCUUUACAAC [50-bp dsRNA]", 7.66],
  ["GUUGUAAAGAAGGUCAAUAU / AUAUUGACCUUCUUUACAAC [20-bp dsRNA]", 6.92],
  ["GUUGUAAAGAAGGUCAAUAUUGUACCAAAC / GUUUGGUACAAUAUUGACCUUCUUUACAAC [30-bp dsRNA]", 7.92],
  ["GUUGUAAAGAAGGUCAAUAUUGUACCAAACUUGAUGGAAA / UUUCCAUCAAGUUUGGUACAAUAUUGACCUUCUUUACAAC [40-bp dsRNA]", 7.10]
]}

Attention now turns to another entry.
Query :: // lookup pKd for GUUGUAAAGAAGGU / ACCUUCUUUACAAC [14-bp dsRNA]
Result :: 5.68
